- Test Description: self-splicing fitness, log relative to wild type (ln ratio); higher = more splicing; Tetrahymena group I intron in knt gene, E. coli kanamycin selection, DiMSum; sequences stand for … in CUCUCU…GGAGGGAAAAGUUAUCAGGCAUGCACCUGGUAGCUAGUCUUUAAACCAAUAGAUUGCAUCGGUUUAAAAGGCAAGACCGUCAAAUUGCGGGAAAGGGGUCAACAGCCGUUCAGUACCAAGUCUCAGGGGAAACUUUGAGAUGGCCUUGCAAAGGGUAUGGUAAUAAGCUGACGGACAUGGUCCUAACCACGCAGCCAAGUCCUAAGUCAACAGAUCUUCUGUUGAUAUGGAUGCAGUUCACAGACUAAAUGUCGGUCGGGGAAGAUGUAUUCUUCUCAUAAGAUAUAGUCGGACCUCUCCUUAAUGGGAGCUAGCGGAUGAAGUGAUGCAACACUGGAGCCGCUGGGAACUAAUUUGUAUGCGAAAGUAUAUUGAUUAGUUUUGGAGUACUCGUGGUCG;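 note: selection with 25 µg/mL kanamycin versus none on LB agar overnight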
- Reported Conditions: 37 °C
Exercise: for every item that follows, state its recorded self-splicing fitness (ln).
Lab note: jot down the number only; don't add units.

Requested field: self-splicing fitness (ln). Item: UCCAAGCAAUAUUACGGCAC
-0.668

Now try UUGUAGCAAUAUUACGGCUC .
0.26

Now try CACGAGCAAUAUUACGGCGA .
-2.69

Now try CUCGAGCAAUAUUACGUAGG .
-0.804

Now try UGAAAGCAAUAUUACGAUCU .
0.425

Now try ACAUAGCAAUAUUACGGAUC .
-1.21

Now try GCCGAGCAAUAUUACGAGGC .
-2.3

Now try AUCCAGCAAUAUUACGGCCU .
0.0854

Now try CUCUAGCAAUAUUACGAGUG .
-1.09

Now try CCGCAGCAAUAUUACGAUUU .
-2.22

Now try CUCCAGCAAUAUUACGAGGU .
-3.07

Now try CCCUAGCAAUAUUACGUAGG .
-2.15

Now try CGCAAGCAAUAUUACGGUCU .
-0.898

Now try AACGAGCAAUAUUACGAGAA .
-1.56

Now try CCUCAGCAAUAUUACGUUUC .
-2.44

Now try GAGUAGCAAUAUUACGGUUC .
-2.36

====

- Test Description: self-splicing fitness, log relative to wild type (ln ratio); higher = more splicing; Tetrahymena group I intron in knt gene, E. coli kanamycin selection, DiMSum; sequences stand for … in CUCUCU…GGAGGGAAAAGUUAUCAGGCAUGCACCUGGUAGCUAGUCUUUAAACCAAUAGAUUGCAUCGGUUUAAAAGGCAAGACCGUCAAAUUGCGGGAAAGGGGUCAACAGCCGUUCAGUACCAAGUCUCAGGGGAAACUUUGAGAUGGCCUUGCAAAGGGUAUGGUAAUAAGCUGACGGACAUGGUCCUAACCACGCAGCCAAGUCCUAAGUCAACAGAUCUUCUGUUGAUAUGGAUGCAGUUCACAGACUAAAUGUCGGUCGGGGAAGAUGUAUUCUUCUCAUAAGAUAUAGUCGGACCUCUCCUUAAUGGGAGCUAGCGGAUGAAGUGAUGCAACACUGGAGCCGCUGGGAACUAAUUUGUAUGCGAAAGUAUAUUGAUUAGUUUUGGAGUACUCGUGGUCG
- Reported Conditions: 37 °C
Exercise: for every item that follows, state its recorded self-splicing fitness (ln).
Lab note: jot down the number only; don't add units.

Requested field: self-splicing fitness (ln). Item: GCUCAGCAAUAUUACGACCU
-0.401

Now try AUCUAGCAAUAUUACGUGUU .
-2.54

Now try CGGUAGCAAUAUUACGGGGC .
-2.39

Now try UAGAAGCAAUAUUACGUAUU .
-2.22

Now try UUCGAGCAAUAUUACGCAUU .
-2.81

Now try GAAGAGCAAUAUUACGGAUA .
-2.85

Now try CUUGAGCAAUAUUACGGGCU .
-1.91

Now try CACCAGCAAUAUUACGAGCC .
-2.92

Now try AUCGAGCAAUAUUACGCUGU .
-3.35

Now try UGGUAGCAAUAUUACGGGAU .
-2.32

Now try UGGGAGCAAUAUUACGGGAA .
-1.87

Now try AUUAAGCAAUAUUACGCAAG .
-1.27

Now try GGAGAGCAAUAUUACGCUCC .
-1.68

Now try CAAAAGCAAUAUUACGGCUA .
-0.809

Now try UACUAGCAAUAUUACGCGUA .
-2.33

Now try CUUUAGCAAUAUUACGCACA .
-1.19
